- Test system: DMS 273 small cell lung
- ASSAY_PROCEDURE: NCI tumour cell line growth inhibition, 48 h
OBSERVED_PROPERTY: TGI

// query Fill in the recorded TGI for this molecule, with DMS 273 small cell lung as test system: COC(=O)C1C(O)CC(c2ccccn2)N(Cc2ccccc2)C1c1ccccn1 (centres undefined)
// result > 100 µM

// query // fetch DMS 273 small cell lung TGI for O=C1C=CC=CC2CC=C[C@@H](O)C12 (some centres undefined)
// result 51.5 µM

// query Please provide the recorded TGI for COc1cc(/C=C\c2ccc(C)cc2)cc(OC)c1OC , tested on DMS 273 small cell lung.
// result 17.4 µM

// query Form: Entry = CC12N=NN(c3ccc([N+](=O)[O-])cc3)C1(O)c1ccccc1C2=O (centres undefined) | System = DMS 273 small cell lung | TGI = ____
// result > 100 µM

// query Find TGI (DMS 273 small cell lung) for the entry C=CC1[C@H]2COC(C)(C)O[C@@H]2CC(=O)C1(C)C (some centres undefined)
// result > 100 µM

// query # query: TGI | item COc1cc(/C=C\c2ccccc2)cc(OC)c1OC | system: DMS 273 small cell lung
// result 11.5 µM

// query Request body: readout TGI, system DMS 273 small cell lung, query CC1OC(OCC2OC(Oc3c(-c4ccc(O)cc4)oc4cc(O)cc(O)c4c3=O)C(OC3OC(C)C(O)C(O)C3O)C(O)C2O)C(O)C(O)C1O (centres undefined) . Return the value.
// result > 100 µM

// query Item: COC1=CC(=O)C2C(C1=O)[C@@H]1c3ccccc3C[C@H]21 (some centres undefined) Test system: DMS 273 small cell lung Read-out: TGI Value: ?
// result > 100 µM

// query Query TGI on DMS 273 small cell lung for CC1(C)C(=O)C(C)(C)C1=NN
// result > 100 µM

// query Write down the reported TGI of O=C(/C=C/c1ccccc1)CC1OC(=O)c2ccccc21 (centres undefined) , test system: DMS 273 small cell lung.
// result > 100 µM

// query Return TGI measured with DMS 273 small cell lung given this molecule: Nc1cccc2c1C(=O)c1cccc(N)c1C2=O
// result > 100 µM

// query // map Cn1nc(-c2ccccc2)c(C(=O)/C=C/c2ccc(F)cc2)c(N2CCCCC2)c1=O to recorded TGI (system: DMS 273 small cell lung)
// result 28.8 µM

// query Please tell me: TGI of CCOC(=O)/C(O)=C/c1cc(OC)cc(=O)o1 , system DMS 273 small cell lung?
// result > 100 µM

// query Value wanted: TGI (DMS 273 small cell lung) of entry CCCCC1CC(c2cccc([N+](=O)[O-])c2)=NO1 (centres undefined)
// result > 100 µM

====

- Test system: OVCAR-8 ovarian
- ASSAY_PROCEDURE: NCI tumour cell line growth inhibition, 48 h
I'd be grateful if you could share measured GI50 for these entries.

// query Look up GI50: Cc1c(S(C)(=O)=O)c(-c2cc(F)cc(N3CCN(c4ccc(NS(=O)(=O)c5ccc(N[C@H](CCN6CCC(C(=O)OCCCP(=O)(O)O)CC6)CSc6ccccc6)c(S(=O)(=O)C(F)(F)F)c5)cc4)CC3)c2)c(-c2ccc(Cl)cc2)n1C(C)C
// result > 100 µM

// query State the recorded GI50 for this entry: COc1ccc(Nc2ncc(Br)c(NCCCNC(=O)C3CCC3)n2)cc1
// result 21.1 µM

// query Look at this compound and give its reported GI50. Cc1ccc(/C(=N\N=C(N)N)c2ccccc2)cc1
// result 0.521 µM

====

- Test system: A498 renal
- ASSAY_PROCEDURE: NCI tumour cell line growth inhibition, 48 h
I'd be grateful if you could share measured TGI for these entries.

// query State the recorded TGI for this entry: CC1(C)OCC(C(O)C2OC(C)(C)OC2C=O)O1 (stereo not given)
// result > 100 µM

// query What value of TGI has been recorded for this entry: CC(=O)/C(=C/n1c(=S)[nH]c2ccccc21)C(=O)Nc1ccccc1C
// result > 100 µM

// query What value of TGI has been recorded for this entry: C/C=C\C(CC(=O)NCCc1cn(C(=O)OCc2ccccc2)c2ccccc12)CC(=O)OC (stereo not given)
// result > 100 µM

// query // TGI lookup, key: CN(C)CCNC(=O)c1ccc(NCCCN(C)CCCNc2ccc3c(=O)n(CCN(C)C)c(=O)n4c5ccccc5c(=O)c2c34)c2c(=O)c3ccccc3[nH]c12
// result 0.415 µM

// query Look at this molecule and give its reported TGI. CCCCCCCNc1nc(C(=O)OCC)ncc1-c1ccc(C(F)(F)F)cc1
// result > 100 µM

// query What value of TGI has been reported for the following molecule? NC1CCCCC1.[O]=[Ge].[O]=[Ge].[O]=[Ge][OH].[O]=[Ge][OH]
// result > 100 µM

// query Which TGI value belongs to CC1(C)CC[C@H](Nc2ncc(C(F)(F)F)c(-c3c[nH]c4c(P(C)(C)=O)c(C#N)ccc34)n2)CN1 ?
// result 8.85 µM

// query Fill in the blank: the reported TGI of C(=C\c1cccc(/C=C/c2ccccn2)n1)/c1ccccn1 is ____.
// result 71.7 µM

// query // lookup TGI for COC(=O)[C@H]1[C@@H](C(C)C)O[C@@H](C(C)C)O[C@H]1C(F)(F)F
// result > 100 µM

// query Any idea what its TGI is? The molecule is Cn1nc2n(c1=O)CCCN2
// result > 100 µM

====

- Tested on: SN12C renal
- ASSAY_PROCEDURE: NCI tumour cell line growth inhibition, 48 h
OBSERVED_PROPERTY: TGI (µM)
// return numeric value only (unit: µM, not printed)

// query What measured TGI goes with COc1ccc2c(c1)/C(=C\c1cccnc1)C(=O)N2 ?
// result 29.4

// query Sample C[C@H](NC(=O)[C@@H]1CSSC[C@@H](NC(=O)c2nc3ccccc3cc2O)C(=O)NCC(=O)N1C)c1ccccc1 — what was its TGI?
// result 14.1

// query Using the record for OC1c2ccccc2C2(O)C1C(c1ccccc1)C(c1ccccc1)C2(O)c1ccccc1 (configuration not stated) , report its TGI.
// result 32.9

====

Kindly supply the reported TGI values for the records listed here.
- System: SK-MEL-2 melanoma
- ASSAY_PROCEDURE: NCI tumour cell line growth inhibition, 48 h

// query Please look up its TGI: OC1c2ccccc2C2(O)C1C(c1ccccc1)C(c1ccccc1)C2(O)c1ccccc1 (centres undefined)
// result 23.3 µM

// query TGI value for entry O=C1CCC2(CCO1)OCCO2
// result > 100 µM

// query I am curious: what TGI value has been reported for CCCn1c(SC)nc(COC(=O)NC)c1COC(=O)NC ?
// result > 100 µM

// query Requested read-out: TGI. Entry: CCCCC1CC(c2cccc([N+](=O)[O-])c2)=NO1 (centres undefined)
// result > 100 µM

// query If you can, please state the reported TGI value of O=C([CH-]C(=O)c1ccccc1)c1ccccc1.O=C([CH-]C(=O)c1ccccc1)c1ccccc1.O=C([CH-]C(=O)c1ccccc1)c1ccccc1.[Nd+3].[OH3+] .
// result 15.6 µM

// query Reported TGI, compound CCOP(=O)(OCC)C(Nc1cccc(F)c1)c1ccccc1 (centres undefined) : ____
// result > 100 µM

// query Find the recorded TGI belonging to COc1ccc(Nc2ncc(Br)c(NCCCNC(=O)C3CCC3)n2)cc1 and report it.
// result 55.7 µM

// query Return reported TGI; argument: CCOC(=O)C1(C(=O)OCC)[C@H](c2ccccc2)C2=NO[C@@H]3CCC[C@H]1[C@H]23
// result > 100 µM

// query TGI lookup needed for O=C(O)C1C2CCC(O2)C1C(=O)N1CCCCC1 (centres undefined) , thanks.
// result 21.2 µM

// query Any idea what its TGI is? The compound is COc1ccc(N(C)C(=O)N(C)c2ccc([N+](=O)[O-])cc2)cc1
// result 45.3 µM

// query Endpoint output: TGI of CCc1cccc(C(C)C)c1NC(=O)C(=O)CC(=O)c1c(C)n([O-])c2ccccc2[n+]1=O . Value?
// result > 100 µM

// query State the recorded TGI for this entry: CC1CCP(=O)(c2ccccc2)c2ccccc21 (centres undefined)
// result > 100 µM

// query // returns reported TGI for input Cc1ccc(C(=O)O)c(CC2Cc3c(C)cccc3C2=O)c1 (centres undefined)
// result > 100 µM

// query Look at this compound and give its reported TGI. CO/C(=N\N=C\c1cccc(Cl)c1)c1ccncc1
// result > 10 µM

====

- Test system: DU-145 prostate
- ASSAY_PROCEDURE: NCI tumour cell line growth inhibition, 48 h
OBSERVED_PROPERTY: TGI

// query For the compound shown here, Cc1ccc(C(=O)N/N=C(\N=Nc2cccc(Cl)c2)c2ccc(N(CCC#N)CCC#N)cc2C)cc1 , give the reported TGI.
// result > 100 µM

// query So what does the record say about TGI for COc1cc(CCN)c2c(c1OC)SSSSS2 ?
// result 1.22 µM

// query Please give the measured TGI for this compound: CC(=O)OCC1OC(n2c3c(c(-c4cccc5ccccc45)c(C#N)c2=S)CCCC3)C(OC(C)=O)C(OC(C)=O)C1OC(C)=O (centres undefined)
// result > 100 µM

// query Looking for the measured TGI of CSC(CC(=O)O)C(=O)O (centres undefined) , can you help?
// result > 100 µM

// query Could you tell me which TGI is on file for Cc1cc(/C=C\c2ccc3ccccc3[n+]2C)c(O)c2ncccc12 ?
// result 4.22 µM

// query What value of TGI has been reported for the following compound? Cc1cc(O)c(C(C)C)cc1SC#N
// result 28.8 µM

// query Entry CCNc1ccc2c(c1)Cc1ccccc1-2 : reported TGI = ?
// result > 100 µM

// query Return reported TGI; argument: COc1cc2c(cc1OCCCC(=O)Nc1cc(C(=O)Nc3cc(C(=O)Nc4cc(C(=O)NCCCN(C)C)n(C)n4)n(C)n3)n(C)n1)N=CC1CCCN1C2=O (centres undefined)
// result > 100 µM

// query Report TGI for O=C(/C(=C\C(=O)c1cccs1)c1ccsc1)c1ccc(Br)cc1 please.
// result > 100 µM
